# Tested on: MDA-MB-231
# PROTOCOL_NOTES: Cell growth, trypan blue exclusion/phase-contrast microscopy, MDA-MB-231
# Assay type: cell-based, human
# MEASUREMENT_SETUP: Homo sapiens, MDA-MB-231, 72 h
MEASUREMENT_KIND: IC50 (µM)
The answer is to be given in µM; state only the numeric part.

IC50 reported for this compound C[C@H](C(=O)N(Cc1ccc(C2CCCCC2)cc1)c1ccc(C(=O)O)cc1F)N(C)S(=O)(=O)c1c(F)c(F)c(F)c(F)c1F : 3.9

====

# PROTOCOL_NOTES: in vitro
# MEASUREMENT_SETUP: human, Caco-2
MEASUREMENT_KIND: Papp B→A (×10⁻⁶ cm/s)
The answer is to be given in ×10⁻⁶ cm/s; state only the numeric part.

Papp B→A reported for this compound C[C@H](C(=O)N(Cc1ccc(C2CCOCC2)cc1)c1ccc(C(=O)[O-])c(O)c1)N(C)S(=O)(=O)c1c(F)c(F)c(F)c(F)c1F.[Na+] [Example 59] : 0.7

====

# PROTOCOL_NOTES: physchem
# MEASUREMENT_SETUP: simulated gastric fluid (SGF), pH 1.2, simulated gastric fluid
MEASUREMENT_KIND: solubility (µg/mL)
The answer is to be given in µg/mL; state only the numeric part.

solubility reported for this molecule O=C([O-])c1ccc(N(Cc2ccc(C3CCOCC3)cc2)C(=O)[C@H]2CCCN2S(=O)(=O)c2c(F)c(F)c(F)c(F)c2F)cc1O.[Na+] : 0.4

solubility reported for this molecule C[C@H](C(=O)N(Cc1ccc(C2CCCCC2)cc1)c1ccc(C(=O)NO)cc1F)N(C)S(=O)(=O)c1c(F)c(F)c(F)c(F)c1F : 0.8

solubility reported for this molecule C[C@H](C(=O)N(Cc1ccc(C2CCCCC2)cc1)c1ccc(C(=O)[O-])c(O)c1)N(C)S(=O)(=O)c1c(F)c(F)c(F)c(F)c1F.[Na+] : 1.3

====

# System: Caco-2 cells
# PROTOCOL_NOTES: Cell membrane permeability, Caco-2 cells assay
# MEASUREMENT_SETUP: basolateral to apical; second number of cell
Consider the following compounds; for each one, report its Caco-2 Cells Recovery B to A.
The answer is to be given in %; state only the numeric part.

Caco-2 Cells Recovery B to A reported for this compound O=C(O)c1ccc(N(Cc2ccc(C3CCOCC3)cc2)C(=O)[C@H]2CCCN2S(=O)(=O)c2c(F)c(F)c(F)c(F)c2F)c(F)c1 : 67

Caco-2 Cells Recovery B to A reported for this compound O=C([O-])c1ccc(N(Cc2ccc(C3CCOCC3)cc2)C(=O)[C@H]2CCCN2S(=O)(=O)c2c(F)c(F)c(F)c(F)c2F)cc1O.[Na+] : 60

Caco-2 Cells Recovery B to A reported for this compound C[C@H](C(=O)N(Cc1ccc(C2CCCCC2)cc1)c1ccc(C(=O)[O-])c(O)c1)N(C)S(=O)(=O)c1c(F)c(F)c(F)c(F)c1F.[Na+] : 2

Caco-2 Cells Recovery B to A reported for this compound C[C@H](C(=O)N(Cc1ccc(C2CCOCC2)cc1)c1ccc(C(=O)[O-])c(O)c1)N(C)S(=O)(=O)c1c(F)c(F)c(F)c(F)c1F.[Na+] : 40

====

# EXPERIMENTAL_SYSTEM: Stat3 (Mus musculus)
# Sequence (P42227 2-770 limits assumed): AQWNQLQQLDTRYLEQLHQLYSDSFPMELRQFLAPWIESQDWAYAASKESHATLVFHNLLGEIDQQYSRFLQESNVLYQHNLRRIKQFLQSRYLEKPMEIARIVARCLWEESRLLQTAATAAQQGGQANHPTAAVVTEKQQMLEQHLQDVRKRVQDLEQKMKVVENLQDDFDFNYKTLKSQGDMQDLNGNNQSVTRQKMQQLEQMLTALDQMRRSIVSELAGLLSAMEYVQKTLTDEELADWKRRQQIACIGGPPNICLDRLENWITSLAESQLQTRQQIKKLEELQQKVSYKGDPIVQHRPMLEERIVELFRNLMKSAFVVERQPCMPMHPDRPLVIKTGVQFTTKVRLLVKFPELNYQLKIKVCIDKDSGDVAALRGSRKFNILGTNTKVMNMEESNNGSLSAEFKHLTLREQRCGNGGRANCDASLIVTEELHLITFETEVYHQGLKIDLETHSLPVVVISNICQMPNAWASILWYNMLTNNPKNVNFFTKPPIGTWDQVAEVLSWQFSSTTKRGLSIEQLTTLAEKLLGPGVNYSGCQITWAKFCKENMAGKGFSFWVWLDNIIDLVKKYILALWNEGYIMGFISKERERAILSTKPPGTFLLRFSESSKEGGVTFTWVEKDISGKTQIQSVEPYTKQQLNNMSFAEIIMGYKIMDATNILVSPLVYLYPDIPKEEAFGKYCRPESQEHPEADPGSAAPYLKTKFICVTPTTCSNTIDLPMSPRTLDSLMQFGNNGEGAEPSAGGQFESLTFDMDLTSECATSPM
# Assay type: biochemical
# MEASUREMENT_SETUP: Stat3 DNA-binding activity in vitro; nuclear extracts pre-incubated with compound 30 min at room temperature, hSIE probe; read-out: EMSA IC50
Note to self: IC50 under 2000 nM means class 1, ties and anything higher get class 0.

Task: Please let me know if O=C(O)c1ccc(N(Cc2ccc(C3CCCCC3)cc2)C(=O)[C@H]2CCCN2S(=O)(=O)c2c(F)c(F)c(F)c(F)c2F)cc1O [Example 25] shows IC50 below 2000 nM.
Result: class 0

Task: Please let me know if O=C(O)c1ccc(N(Cc2ccc(C3CCCCC3)cc2)C(=O)[C@H]2CCCN2S(=O)(=O)c2c(F)c(F)c(F)c(F)c2F)cc1Cl [Example 46] shows IC50 below 2000 nM.
Result: class 0

Task: Please let me know if O=C(O)c1ccc(N(Cc2ccc(C3CCOC3)cc2)C(=O)[C@H]2CCCN2S(=O)(=O)c2c(F)c(F)c(F)c(F)c2F)cc1O (stereo partly drawn) [Example 29] shows IC50 below 2000 nM.
Result: class 0

Task: Please let me know if O=C(NO)c1ccc(N(Cc2ccc(C3CCCC3)cc2)C(=O)[C@H]2CCN2S(=O)(=O)c2c(F)c(F)c(F)c(F)c2F)cc1 [Example 88] shows IC50 below 2000 nM.
Result: class 0

Task: Please let me know if COC(=O)c1ccc(N(Cc2ccc(C3CCCCC3)nc2)C(=O)[C@H]2CCN2S(=O)(=O)c2c(F)c(F)c(F)c(F)c2F)cc1O [Example 92] shows IC50 below 2000 nM.
Result: class 1

Task: Please let me know if NC(=O)c1ccc(N(Cc2ccc(C3CCCCC3)cn2)C(=O)[C@H]2CCN2S(=O)(=O)c2c(F)c(F)c(F)c(F)c2F)cc1O [Example 143] shows IC50 below 2000 nM.
Result: class 1
